All values here come from patent US7511041B2.

melting point overview

O=C(NC1=Nc2ccc(Cl)cc2C2=NCCN12)c1cccs1 ... 174 °C
Cc1cc(C(=O)NC2=Nc3ccccc3C3=NCCN23)cnc1N.Cl ... 311 °C (dec.)
Cn1cccc1C(=O)NC1=Nc2ccccc2C2=NCCN12 ... 128 to 129 °C

// melting point lookup, key: `COc1ccc2c(c1OC)N=C(/C=C(\O)c1cccnc1)N1CCN=C21.Cl`
249 to 250 °C

* * *

biological target: Recombinant human PI3Kγ (full length human PI3K p110γ) (Homo sapiens, UniProt P48736); construct: full length human PI3K p110γ fused with a His6-tag at the C-terminus; His6 (C); purchased ALEXIS BIOCHEMICALS #201-055-C010; host or cells: S. frugiperda 9 insect cells; assay: Kinase assay of PI3Kγ (solid-phase lipid kinase assay); assay type: biochemical; conditions: in vitro PI3K-γ inhibitory activity, class symbols; read-out: in vitro PI3K-gamma
Sequence (P48736 whole entry, the tested form may be a part): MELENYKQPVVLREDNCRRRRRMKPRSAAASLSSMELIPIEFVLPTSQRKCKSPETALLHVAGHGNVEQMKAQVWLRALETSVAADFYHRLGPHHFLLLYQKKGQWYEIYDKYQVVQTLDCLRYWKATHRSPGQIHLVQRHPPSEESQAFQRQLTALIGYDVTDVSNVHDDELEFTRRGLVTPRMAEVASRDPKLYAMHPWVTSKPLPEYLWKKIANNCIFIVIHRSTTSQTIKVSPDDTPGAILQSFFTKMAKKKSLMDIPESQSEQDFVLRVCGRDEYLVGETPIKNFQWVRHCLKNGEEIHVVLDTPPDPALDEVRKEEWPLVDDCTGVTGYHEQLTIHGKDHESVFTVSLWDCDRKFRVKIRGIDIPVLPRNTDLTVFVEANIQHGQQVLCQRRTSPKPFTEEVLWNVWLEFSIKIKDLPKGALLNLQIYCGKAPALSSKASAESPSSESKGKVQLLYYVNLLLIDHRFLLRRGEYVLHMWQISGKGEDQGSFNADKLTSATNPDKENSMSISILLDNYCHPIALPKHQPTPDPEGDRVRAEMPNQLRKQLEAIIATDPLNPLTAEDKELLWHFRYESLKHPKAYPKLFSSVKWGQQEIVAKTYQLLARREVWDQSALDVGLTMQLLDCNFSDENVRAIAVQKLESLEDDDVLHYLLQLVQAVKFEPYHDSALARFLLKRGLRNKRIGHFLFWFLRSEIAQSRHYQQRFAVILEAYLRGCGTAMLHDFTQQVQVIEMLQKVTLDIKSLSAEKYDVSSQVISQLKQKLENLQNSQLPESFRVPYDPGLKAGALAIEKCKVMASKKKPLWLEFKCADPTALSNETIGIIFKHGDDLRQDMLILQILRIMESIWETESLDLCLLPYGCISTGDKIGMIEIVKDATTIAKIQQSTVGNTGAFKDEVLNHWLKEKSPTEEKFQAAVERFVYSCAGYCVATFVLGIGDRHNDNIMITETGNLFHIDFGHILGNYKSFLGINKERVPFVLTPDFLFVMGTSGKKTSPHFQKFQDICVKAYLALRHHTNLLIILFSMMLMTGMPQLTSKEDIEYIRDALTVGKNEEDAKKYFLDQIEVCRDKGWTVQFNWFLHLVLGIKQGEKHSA
metricName: IC50

// IC50 lookup, key: Cc1ccc(C(=O)NC2=Nc3cc(N4CCOCC4)ccc3C3=NCCN23)cn1 [Example 2-13]
< 100 nM

// IC50 lookup, key: Cl.O=C(NC1=Nc2cccc(Cl)c2C2=NCCN12)c1cccnc1 [Example 2-98]
100 to 500 nM

// IC50 lookup, key: O=C(NC1=Nc2cc(Cl)ccc2C2=NCCN12)c1ccc2[nH]cnc2c1 [Example 2-39]
< 100 nM

// IC50 lookup, key: Cl.O=C(NC1=Nc2ccccc2C2=NCCN12)c1cccnc1Cl [Example 2-135]
100 to 500 nM

// IC50 lookup, key: CC(=O)Nc1ccc(C(=O)NC2=Nc3cc(N4CCOCC4)ccc3C3=NCCN23)cc1.Cl [Example 2-9]
100 to 500 nM

// IC50 lookup, key: O=C(NC1=Nc2ccc(Cl)cc2C2=NCCN12)c1cccnc1 [Example 2-84]
100 to 500 nM

* * *

Biological target: Recombinant human PI3Kγ (full length human PI3K p110γ) (Homo sapiens)
Construct: full length human PI3K p110γ fused with a His6-tag at the C-terminus; His6 (C); purchased ALEXIS BIOCHEMICALS #201-055-C010; host or cells: S. frugiperda 9 insect cells
Assay: Kinase assay of PI3Kγ (solid-phase lipid kinase assay)
Format: biochemical
Conditions: in vitro PI3K-γ inhibitory activity, class symbols; read-out: in vitro PI3K-gamma
Experimental: [Determination of IC50 Values of Compounds in Kinase Assay of PI3Kγ] Chemicals and Assay Materials LABORATORIES (Toronto, Canada). […] The plates were subsequently air-dried by incubation for at least 2 hours in a fume hood. […] MicroScint PS™ (PACKARD) scintillation mix was added at 100 μl/well, and radioactivity was counted by using a TopCount™ (PACKARD) scintillation counter. […]
metricName: IC50

// below: answered compounds
Cl.O=C(NC1=Nc2cc(C(F)(F)F)ccc2C2=NCCN12)c1ccc2[nH]cnc2c1 [Example 2-37] ... < 100 nM
Cc1nc(C)c(C(=O)NC2=Nc3cc(N4CCOCC4)ccc3C3=NCCN23)s1 [Example 2-16] ... 100 to 500 nM
O=C(NC1=Nc2ccccc2C2=NCCN12)c1cccnc1.O=C(O)C(F)(F)F [Example 2-130] ... < 100 nM
Cl.O=C(NC1=Nc2cc(O)ccc2C2=NCCN12)c1cccnc1 [Example 2-195] ... 100 to 500 nM
O=C(NC1=Nc2ccccc2C2=NCCN12)c1cccnc1Cl [Example 2-134] ... < 100 nM
O=C(NC1=Nc2c(F)cccc2C2=NCCN12)c1ccc2[nH]cnc2c1 [Example 2-101] ... < 100 nM

// IC50 lookup, key: Cc1cc(Br)c2c(c1)C1=NCCN1C(NC(=O)c1cccnc1)=N2.Cl [Example 2-74]
< 100 nM

// IC50 lookup, key: COc1cc2c(cc1OC)C1=NCCN1C(NC(=O)c1cncc(C)c1)=N2.Cl [Example 2-59]
100 to 500 nM

// IC50 lookup, key: Nc1ccc(C(=O)NC2=Nc3ccccc3C3=NCCN23)cn1 [Example 2-149]
< 100 nM

// IC50 lookup, key: Cc1cccc2c1N=C(NC(=O)c1ccc3[nH]cnc3c1)N1CCN=C21 [Example 2-109]
< 100 nM

// IC50 lookup, key: COc1cc(OC)c2c(c1)C1=NCCN1C(NC(=O)c1ccc(NC(C)=O)nc1)=N2 [Example 2-70]
100 to 500 nM

// IC50 lookup, key: COc1cncc(C(=O)NC2=Nc3ccccc3C3=NCCN23)c1 [Example 2-140]
100 to 500 nM

// IC50 lookup, key: Cl.O=C(NC1=Nc2cc(OCCn3cccc3)ccc2C2=NCCN12)c1cccnc1 [Example 2-196]
100 to 500 nM

// IC50 lookup, key: Cc1nc(C)c(C(=O)NC2=Nc3ccccc3C3=NCCN23)s1 [Example 2-189]
100 to 500 nM

// IC50 lookup, key: COc1ccc2c(c1OC)N=C(NC(=O)c1ccc3[nH]cnc3c1)N1CCN=C21 [Example 2-49]
< 100 nM

// IC50 lookup, key: Cc1ccncc1C(=O)NC1=Nc2ccccc2C2=NCCN12 [Example 2-136]
100 to 500 nM

// IC50 lookup, key: COc1cc2c(cc1OC)C1=NCCN1C(NC(=O)c1cc(C)nn1C)=N2 [Example 2-64]
100 to 500 nM

// IC50 lookup, key: COc1cc2c(cc1OC)C1=NCCN1C(NC(=O)c1cn[nH]c1)=N2.Cl [Example 2-63]
100 to 500 nM

// IC50 lookup, key: Cl.O=C(NC1=Nc2cc(N3CCOCC3)ccc2C2=NCCN12)c1cccnc1 [Example 2-8]
< 100 nM
